Target: human tau oligomers (human, UniProt P10636-6 2-383, limits assumed)
Sequence (P10636 other isoform, or with tags, fused parts or gaps limits assumed): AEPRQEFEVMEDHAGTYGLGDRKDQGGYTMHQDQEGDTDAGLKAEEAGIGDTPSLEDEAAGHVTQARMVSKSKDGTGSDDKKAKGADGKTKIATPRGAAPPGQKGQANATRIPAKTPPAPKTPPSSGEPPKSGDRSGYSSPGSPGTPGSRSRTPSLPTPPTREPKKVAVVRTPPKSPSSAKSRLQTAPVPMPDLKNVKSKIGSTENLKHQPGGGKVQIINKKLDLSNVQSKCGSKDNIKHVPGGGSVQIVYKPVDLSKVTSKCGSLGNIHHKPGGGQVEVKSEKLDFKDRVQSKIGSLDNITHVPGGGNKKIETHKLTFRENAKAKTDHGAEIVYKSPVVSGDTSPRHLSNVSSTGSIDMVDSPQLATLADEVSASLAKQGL
Experiment: cell-based or functional assay
Result type: MTT viability of primary neurons with tau oligomers, antibody at 1 molar equivs

Query: Find the measured MTT viability of primary neurons with tau oligomers, antibody at 1 molar equivs of mouse 2D11 antibody (antibody, mouse IgG2a, V domains shown) VH: EVQLQQSGAELVRPGASVKLSCTASGFNIKDDYMNWVKQRPERGLEWIGWIDPENGDTEYASKFQGKATMTADTSSNTAYLQFSSLTSEDTAVYYCTTSNGWGQGTLVTVST VL: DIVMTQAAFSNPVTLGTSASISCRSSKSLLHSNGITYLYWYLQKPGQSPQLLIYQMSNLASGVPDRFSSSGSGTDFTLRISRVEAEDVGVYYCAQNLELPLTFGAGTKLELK and report it.
Reply: 50.9 % of control

Query: Find the measured MTT viability of primary neurons with tau oligomers, antibody at 1 molar equivs of mouse 12C4 antibody (antibody, mouse IgG2a, V domains shown, also called m12C4) VH: EVQLQQSGAELVRPGASVKLSCTASGFNIKDDYMNWVRQRPERGLEWIGWIDPENGDTAYASKFQGKATMTADTSSNTAYLQFSSLTSEDSAVYYCTTSNGWGQGTLVTVSA VL: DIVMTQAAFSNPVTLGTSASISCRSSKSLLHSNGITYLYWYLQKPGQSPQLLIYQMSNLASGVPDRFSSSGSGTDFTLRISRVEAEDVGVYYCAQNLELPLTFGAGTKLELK and report it.
Reply: 62.3 % of control

Query: Find the measured MTT viability of primary neurons with tau oligomers, antibody at 1 molar equivs of mouse 10C12 antibody (antibody, mouse IgG2a, V domains shown, also called m10C12) VH: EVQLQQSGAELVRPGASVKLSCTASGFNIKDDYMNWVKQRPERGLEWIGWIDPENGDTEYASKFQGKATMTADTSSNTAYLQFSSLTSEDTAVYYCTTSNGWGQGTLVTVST VL: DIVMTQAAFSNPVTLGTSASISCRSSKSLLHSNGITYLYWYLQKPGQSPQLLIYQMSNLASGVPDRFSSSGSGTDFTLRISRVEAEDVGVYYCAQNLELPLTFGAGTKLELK and report it.
Reply: 56.4 % of control

Query: Find the measured MTT viability of primary neurons with tau oligomers, antibody at 1 molar equivs of mouse 9F5 antibody (antibody, mouse IgG1, V domains shown, also called m9F5; murine 9F5) VH: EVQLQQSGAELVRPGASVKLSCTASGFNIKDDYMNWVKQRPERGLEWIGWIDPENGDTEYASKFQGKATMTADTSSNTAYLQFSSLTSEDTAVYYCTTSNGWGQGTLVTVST VL: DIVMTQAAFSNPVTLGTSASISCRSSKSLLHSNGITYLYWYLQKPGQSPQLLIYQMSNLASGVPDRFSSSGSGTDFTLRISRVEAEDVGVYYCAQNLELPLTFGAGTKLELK and report it.
Reply: 64.9 % of control
